Assay: Metabolic stability in rat liver microsomes incubated for 10 mins and assessed as compound remaining
Type: ADME, Microsome
Details: read-out: Stability
Response field label takes true (1) when remaining at 10 min is strictly below 20% and false (0) in all other cases.

Solved cases below.
molecule	assigned class
CCCCc1nc(O)c(C(=O)N2CCC(c3ncc(Cl)cc3F)C2)c(O)c1N(CC)c1ccccc1 (stereo unspecified)	true (1)
CCCCc1nc(O)c(C(=O)N2CC[C@H](c3ccccc3)C2)c(O)c1N(CC)c1ccccc1	true (1)
CCCCc1nc(O)c(C(=O)N2CC[C@@H](c3ccccc3)C2)c(O)c1N(CC)c1ccccc1	true (1)
CCN(c1ccccc1)c1c(-c2cccc(C)c2)nc(O)c(C(=O)N2CCC(c3ncc(F)cc3F)C2)c1O (stereo unspecified)	true (1)
CCCCc1nc(O)c(C(=O)N2CCC(c3ccc(Cl)cn3)C2)c(O)c1N(CC)c1ccccc1 (stereo unspecified)	false (0)

Attention now shifts to the item below.
In plain terms, does CCN(c1ccccc1)c1c(-c2ccn(C)n2)nc(O)c(C(=O)N2CCC(c3ncc(F)cc3F)C2)c1O (stereo unspecified) come in under 20% for remaining at 10 min?
false (0)

====

Test: Metabolic stability in human liver microsomes incubated for 10 mins and assessed as compound remaining
Format: ADME, Microsome
Conditions: read-out: Stability
Lab note: compare remaining at 10 min with 60%, writing yes if less and no if equal or more.

molecule	assigned class
CCCCc1nc(O)c(C(=O)N2CC[C@H](c3ccccc3)C2)c(O)c1N(CC)c1ccccc1	yes
CCCCc1nc(O)c(C(=O)N2CCC(c3ncc(Cl)cc3F)C2)c(O)c1N(CC)c1ccccc1 (stereo unspecified)	yes
CCN(c1ccccc1)c1c(-c2ccn(C)n2)nc(O)c(C(=O)N2CCC(c3ncc(F)cc3F)C2)c1O (stereo unspecified)	no

Check if remaining at 10 min falls below 60% for CCCCc1nc(O)c(C(=O)N2CCC(c3ccc(Cl)cn3)C2)c(O)c1N(CC)c1ccccc1 (stereo unspecified) .
no

Same question for CCN(c1ccccc1)c1c(-c2cccc(C)c2)nc(O)c(C(=O)N2CCC(c3ncc(F)cc3F)C2)c1O (stereo unspecified) please.
yes

CCCCc1nc(O)c(C(=O)N2CC[C@@H](c3ccccc3)C2)c(O)c1N(CC)c1ccccc1 ?
yes

====

Test: Cmax in rat at 1 mg/kg, po
Format: ADME, organism-based
Parameters: dose 1 mg/kg, route po
Conditions: in vivo
result type: Cmax (µM)
The reply should contain only the number, in µM.

For the molecule CCN(c1ccccc1)c1c(-c2ccn(C)n2)nc(O)c(C(=O)N2CCC(c3ncc(F)cc3F)C2)c1O (stereo unspecified) , what Cmax is on record?
5.2

====

Molecular target: Apelin receptor (Homo sapiens, UniProt P35414)
Sequence (P35414 whole entry): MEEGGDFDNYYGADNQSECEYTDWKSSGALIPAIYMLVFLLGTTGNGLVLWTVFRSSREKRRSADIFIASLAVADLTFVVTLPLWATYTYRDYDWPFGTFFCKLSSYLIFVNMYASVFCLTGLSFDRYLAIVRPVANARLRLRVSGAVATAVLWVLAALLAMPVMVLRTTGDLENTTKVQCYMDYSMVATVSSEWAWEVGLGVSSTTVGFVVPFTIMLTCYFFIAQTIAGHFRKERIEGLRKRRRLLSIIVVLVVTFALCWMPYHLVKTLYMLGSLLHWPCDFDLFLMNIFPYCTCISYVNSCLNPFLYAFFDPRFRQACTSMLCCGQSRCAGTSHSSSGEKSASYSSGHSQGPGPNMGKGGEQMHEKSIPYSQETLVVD
Test: Agonist activity at human APJ receptor expressed in HEK293 cells assessed as compound stimulated inhibition of forskolin stimulated cAMP production incubated for 30 mins and measured by fluorescence based assay
Recorded pEC50 for the following molecules
Lab note: report pEC50 as minus log10 of the concentration in molar units, number only.

Field: example entries. Status: answers known.
molecule	numeric value
CCCCc1nc(O)c(C(=O)N2CCN(Cc3cccc(Cl)c3Cl)CC2)c(O)c1N(CC)c1ccccc1	7.80
CCCCc1nc(O)c(C(=O)N2CC[C@H](c3ccccc3)C2)c(O)c1N(c1ccccc1)C(C)C	7.46
CCCCc1nc(O)c(C(=O)N2CCC(c3ccc(Cl)cn3)C2)c(O)c1N(CC)c1ccccc1 (centres undefined)	9.55
CCN(c1ccccc1)c1c(-c2cccc(C)c2)nc(O)c(C(=O)N2CCC(c3ncc(F)cc3F)C2)c1O (centres undefined)	10.00
CCCCc1nc(O)c(C(=O)N2CC[C@H](c3ccccc3)C2)c(O)c1N(CC)c1ccccc1	7.89

# next molecule below
Param item = CCCCc1nc(O)c(C(=O)N2CC[C@H](c3ccccc3)C2)c(O)c1N(C)c1ccc(OC)cc1 ; retrieve measured pEC50.
7.21

====

Target: Apelin receptor (Homo sapiens, UniProt P35414)
Assay: Agonist activity at human APJ receptor expressed in HEK293 cells assessed as compound stimulated inhibition of forskolin stimulated cAMP production incubated for 30 mins and measured by fluorescence based assay
Assay type: functional, cell-based
Rule: EC50 below 0.3 nM gives True. Equal to or above 0.3 nM gives False.

Example entries begin here.
molecule	assigned class
CCCCc1nc(O)c(C(=O)N2CC[C@@H](c3ccccc3)C2)c(O)c1N(CC)c1ccccc1	False
CCCCc1nc(O)c(C(=O)N2CC[C@H](c3ccccc3)C2)c(O)c1N1CCc2ccccc21	False
CCCCc1nc(O)c(C(=O)N2CC[C@H](c3ccccc3)C2)c(O)c1N(C)c1ccccc1	False

Does this molecule meet the criterion EC50 < 0.3 nM? CCCCc1nc(O)c(C(=O)N2CCC(c3ncc(Cl)cc3F)C2)c(O)c1N(CC)c1ccccc1 (stereo not drawn)
True

Moving on to the next molecule: CCCCc1nc(O)c(C(=O)N2CCC(c3ccccc3F)C2)c(O)c1N(CC)c1ccccc1 (stereo not drawn)
False

Could you do the same for CCN(c1ccccc1)c1c(CC2CC2)nc(O)c(C(=O)N2CCC(c3ncc(F)cc3F)C2)c1O (stereo not drawn) , please?
False

What do you have for CCCCc1nc(O)c(C(=O)N2CCC(c3ncc(F)cc3F)C2)c(O)c1N(CC)c1ccccc1 (stereo not drawn) ?
True

====

Molecular target: Apelin receptor (Homo sapiens)
Assay: Agonist activity at human APJ receptor expressed in HEK293 cells assessed as compound stimulated inhibition of forskolin stimulated cAMP production incubated for 30 mins and measured by fluorescence based assay
Below: a set of entries, each annotated with reported EC50.

Please review the entries below; each comes with its answer.
1) CCCCc1nc(O)c(C(=O)N2CC[C@H](c3ccccc3)C2)c(O)c1N(C)c1cccc(OC)c1 > 75 nM
2) CCCCc1nc(O)c(C(=O)N2CC[C@H](c3ccccc3)C2)c(O)c1N(C)c1ccccc1OC > 75 nM

Consider now this further molecule.
So what's the measured EC50 for this one? CCCCc1nc(O)c(C(=O)N2CC[C@H](c3ccccc3)C2)c(O)c1N1CCCc2ccccc21
> 150 nM
